B1: NF2 (merlin) isoform 7, human, full length (507 aa, lacks exons 2-3 = isoform-1 residues 39-121; exon-16 C-terminus), P35240-4 (parent)
chain: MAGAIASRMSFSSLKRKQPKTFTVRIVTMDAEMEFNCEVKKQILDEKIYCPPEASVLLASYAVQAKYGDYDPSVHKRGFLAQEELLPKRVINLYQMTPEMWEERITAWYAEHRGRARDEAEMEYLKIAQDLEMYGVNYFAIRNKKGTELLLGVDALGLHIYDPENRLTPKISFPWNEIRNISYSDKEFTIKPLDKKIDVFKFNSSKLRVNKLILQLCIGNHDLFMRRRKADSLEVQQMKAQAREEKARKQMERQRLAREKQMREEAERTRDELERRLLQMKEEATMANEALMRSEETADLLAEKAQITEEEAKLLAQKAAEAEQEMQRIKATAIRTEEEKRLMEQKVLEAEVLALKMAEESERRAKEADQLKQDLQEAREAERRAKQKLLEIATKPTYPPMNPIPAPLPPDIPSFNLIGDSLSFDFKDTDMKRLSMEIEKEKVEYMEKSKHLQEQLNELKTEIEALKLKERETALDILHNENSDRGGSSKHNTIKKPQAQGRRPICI

- Variants of: B1
- TEST: reverse yeast two-hybrid deep mutational scan (rY2H-seq): NF2 isoform 7 mutant library as bait mated with wild-type prey strains; selection on medium lacking adenine for non-interacting pairs; NextSeq paired-end sequencing; enrichment vs …
- RUN_PARAMETERS: with KDM1A (lysine-specific histone demethylase 1A; the table's label AOF2 is a gene synonym of KDM1A), O60341; yeast diploids after mating (RBait_S3 x RPrey_S3), 30 °C, selection for reporter genes on NB agar; human ABL2 co-expressed as the kinase-dead K35M mutant …; HIGHER = WEAKER BINDING (the opposite of display enrichments): higher = stronger loss of interaction: reverse Y2H selects yeast in which bait and prey do NOT interact (growth without adenine), so a …; hits-only table; scale: rY2H score; numbering: uniprot, sequence starts at 1
Each item that follows carries a reported enrichment.
Answer with a bare number; do not write a unit.

As a guide, the following entries are already answered.
[
  {
    "VARIANT_NOTATION": "R227E",
    "OBSERVABLE": "enrichment",
    "ASSAY_VALUE": 14.7
  },
  {
    "VARIANT_NOTATION": "L348S",
    "OBSERVABLE": "enrichment",
    "ASSAY_VALUE": 4.93
  },
  {
    "VARIANT_NOTATION": "G135E",
    "OBSERVABLE": "enrichment",
    "ASSAY_VALUE": 2.61
  },
  {
    "VARIANT_NOTATION": "L315P",
    "OBSERVABLE": "enrichment",
    "ASSAY_VALUE": 2.33
  }
]

Exercise: Value lookup for enrichment; key = P405E
Key: 2.38

Exercise: Further, for G486D ?
Key: 1.52

Exercise: Entry R328P please
Key: 1.53
